system: TO-N3-2 (biotin conjugate); test: pull-down binding Z-score (relative to library population); higher = stronger binding; details: RNA library: Library-2
observation type: pull-down binding Z-score

Worked cases, answers included:
# sequence code, pull-down binding Z-score
data = [
    ("CACAAUAUUUAGGACAACAAUAUU [hsa-mir-1302-6]", -0.518),
    ("AUCAGUUCUCAUUUUACACACUGGC [hsa-mir-24-1]", -0.282),
    ("GCACUGACUUGCUUUAGCACUCAAUUUGCUUUUGCUUGUCCUGACGGCGUAAAACACGUCUAUCAGUUACGUGC", -0.056),
]

State its pull-down binding Z-score: CCAGGUUCCAUGUGAUGCUGAA [hsa-mir-6806] 0.575

State its pull-down binding Z-score: CACCAAGACUACUUACUGGUG [IAV_invivo_PB1_2_Motif_22+IAV_invivo_PB1_2_Motif_22] -1.37

State its pull-down binding Z-score: UAAUCAGACAAGGAACUGAUUA -0.943

----------
tested on: TO-3-N3-2 (biotin conjugate); test: pull-down binding Z-score (relative to library population); higher = stronger binding; settings: RNA library: Library-2
# pull-down binding Z-score >= -0.3 gives fulfilled, anything below gives not fulfilled

Field: example entries. Status: answers known.
# sequence code, category label
rows = [
    ("GGUGGCAAUCAAGGUCUAGCCACC [hsa-mir-4733]", "fulfilled"),
    ("GUCACACCUUCGGGAACGUGGUUGAC", "not fulfilled"),
    ("GAGUUUGGAGUCGGUGGGUGGAGCCAAACUG [hsa-mir-6860]", "fulfilled"),
]

Determine whether this sequence has pull-down binding Z-score no lower than -0.3: GGAGCUCUGUGCCUUUGGGUCCUGGUGAGCUCU [hsa-mir-6070] fulfilled

Determine whether this sequence has pull-down binding Z-score no lower than -0.3: UGAGGAGUAGAACACUCCUUA [hsa-mir-491] not fulfilled

Determine whether this sequence has pull-down binding Z-score no lower than -0.3: GGGUCCUAAGGUGUGUCCUC [hsa-mir-1976] fulfilled

Determine whether this sequence has pull-down binding Z-score no lower than -0.3: GGCCUCACGGCC [IAV_invivo_PB1_2_Motif_9+IAV_invivo_PB1_2_Motif_9] not fulfilled

----------
tested on: TO-N3 (biotin conjugate); assay: pull-down binding Z-score (relative to library population); higher = stronger binding; settings: RNA library: Library-2
# pull-down binding Z-score >= -0.4 gives MET, anything below gives NOT MET

Field: example entries. Status: answers known.
# sequence code, category label
records = [
    ("UAGUCCUGUUGCACUACGACAGAUGUCUUGUGCUGCCGGUACUA [DMSMaPseq_invitro_SARS-CoV-2_Motif_226]", "NOT MET"),
    ("CUACAUCGUGGAAGCCAGCACCAUGCAG [hsa-mir-455]", "MET"),
    ("CCUAGAGUCCAUUCUUUACUCUAGG [hsa-mir-4779]", "NOT MET"),
]

Determine whether this sequence has pull-down binding Z-score no lower than -0.4: CAUUGUAACAUGAUAGUG [hsa-mir-4264] NOT MET

Determine whether this sequence has pull-down binding Z-score no lower than -0.4: AAAGUGCAGUGAAAAGAACAAUCAAGGGUACACACCACUGGUUGUUACUCACAAUUUUGACUUCACUUU MET

Determine whether this sequence has pull-down binding Z-score no lower than -0.4: ACAGUAUGUCUUUUGUACUGU NOT MET

Determine whether this sequence has pull-down binding Z-score no lower than -0.4: CAGAUACUUUUUAAAAUUUGUUUGAGUUGAGGCAGAUUAAAUAUCUG [hsa-mir-4742] NOT MET
